Origin of values: ChEMBL document CHEMBL3797045

Entries and their measured kcat/Km follow.
tested on: Mycobacterium tuberculosis; assay: Activity at Mycobacterium tuberculosis beta lactamase BlaC expressed in Escherichia coli assessed as ratio of Kcat to Km by spectrophotometric method

Give its kcat/Km value. Item: `CCSC1=C(C(=O)O)N2C(=O)[C@H]([C@@H](C)OC(=O)c3c(F)c(F)c(F)c(F)c3F)[C@H]2[C@H]1C`
840 M⁻¹ s⁻¹

Please report the recorded kcat/Km for `C[C@@H](O)[C@H]1C(=O)N2C(C(=O)O)=C(SCCc3cn(-c4ccccc4)nn3)[C@H](C)[C@H]12` .
2100 M⁻¹ s⁻¹

State the recorded kcat/Km for this entry: `C[C@@H](O)[C@H]1C(=O)N2C(C(=O)O)=C(SCCc3cn(-c4ccccc4C(=O)O)nn3)[C@H](C)[C@H]12`
300 M⁻¹ s⁻¹

Continuing:
Quick one: kcat/Km for `C[C@@H](O)[C@H]1C(=O)N2C(C(=O)O)=C(S[C@@H]3CN[C@H](CNS(N)(=O)=O)C3)[C@H](C)[C@H]12` ?
1500 M⁻¹ s⁻¹
